- System: HCC1569
- assayExplanation: H1.0 immunofluorescence intensity relative to DMSO (% of DMSO); higher = stronger H1.0 induction, active = 140 or more
- conditionSummary: concentration: 10 µM; 24 h
Hello, when you answer, please use one of the following outcomes: Y for active, N for inactive

As a guide, the following entries are already answered.
molecule | classAssignment
CC(=O)CCCCn1c(=O)c2c(ncn2C)n(C)c1=O | N
CC(=O)C(C)=O | N
O=C(O)C(=Cc1c(C(=O)O)[nH]c2cc(Cl)cc(Cl)c12)c1ccccc1 | N
COc1ccc(-c2cc(=S)ss2)cc1 [Anethole trithione] | N
CN(CC=CC#CC(C)(C)C)Cc1cccc2ccccc12.Cl | N

Request: Assay outcome for Cl.N[C@@H](CCC(=O)O)C(=O)O [L-Glutamic acid hydrochloride] : what was it?
Result: N

Request: Assay outcome for c1ccc(C(OC2CCN(CCCc3nn[nH]n3)CC2)c2ccccc2)cc1 [4-(benzhydryloxy)-1-[3-(1H-tetraazol-5-yl)propyl]piperidine] : what was it?
Result: N

Request: Assay outcome for CCn1c(-c2nonc2N)nc2c(C#CC(C)(C)O)ncc(OCC3CCCNC3)c21 (stereo unspecified) : what was it?
Result: N

Request: Assay outcome for CCN1CCCC1CNC(=O)c1c(OC)ccc(I)c1O (stereo unspecified) : what was it?
Result: N

Request: Assay outcome for CCC=CCC(O)C=CC=CCC=CCC=CCCCC(=O)O (stereo unspecified) : what was it?
Result: N

----------
- System: TDF
- assayExplanation: cell number relative to DMSO (% of DMSO); higher = more cells (less growth inhibition / toxicity)
- conditionSummary: concentration: 10 µM; 24 h
Entries and their cell number
Please reply with the number alone, leaving off any unit.

Answered cases to consult:
compound | numericResult
CCN(CC)CCCC(C)Nc1ccnc2cc(Cl)ccc12 (centres undefined) | 99.6
Cl.NC1(C(=O)O)CC1 [1-Aminocyclopropanecarboxylic acid hydrochloride] | 102
COc1cc2c(cc1OC)CC(=O)N(CCCN(C)C[C@H]1Cc3cc(OC)c(OC)cc31)CC2.Cl | 102

Proceeding to the next compound to report its cell number.
Request: # return recorded cell number for entry O=C(O)[C@@H]1C[C@H](C(=O)O)N1 [cis-Azetidine-2,4-dicarboxylic acid]
Result: 101

----------
- Test system: HCC1569
- assayExplanation: cell number relative to DMSO (% of DMSO); higher = more cells (less growth inhibition / toxicity)
- conditionSummary: concentration: 10 µM; 24 h
Entries and their cell number
Please reply with the number alone, leaving off any unit.

Answered cases to consult:
molecule | testedSystem | numericResult
COc1ccc(C(C)=O)c(O)c1 | HCC1569 | 99
CN1CCc2cc(Cl)c(O)cc2C(c2ccccc2)C1.Cl (stereo not given) | HCC1569 | 103
CCCCn1c(=O)c2c(ncn2CC(C)=O)n(CCCC)c1=O | HCC1569 | 103
S=c1ccss1 | HCC1569 | 101
O=c1c(O)c(-c2cc(O)c(O)c(O)c2)oc2cc(O)ccc12 | HCC1569 | 99
CC(C)COCC(CN(Cc1ccccc1)c1ccccc1)N1CCCC1.Cl (stereo not given) [Bepridil.HCl] | HCC1569 | 102
Cc1cc(C(=O)Nc2cccc(C(=O)Nc3cccc(C(F)(F)F)c3)c2)on1 | HCC1569 | 100
Cl.Clc1cccc(Cl)c1NC1=NCCN1 [Clonidine.HCl] | HCC1569 | 103
CCCCCC(O)CCCC(=O)[O-].[Na+] (stereo not given) [5-hydroxydecanoic acid sodium] | HCC1569 | 99.5

Request: # return recorded cell number for entry N#CC(=C(N)Sc1ccc(N)cc1)c1ccccc1C(F)(F)F
Result: 102

----------
Entries and their H1.0 immunofluorescence intensity
- Tested on: TDF
- assayExplanation: H1.0 immunofluorescence intensity relative to DMSO (% of DMSO); higher = stronger H1.0 induction, active = 120 or more
- conditionSummary: concentration: 10 µM; 24 h

compound | H1.0 immunofluorescence intensity
CC(N)(Cc1ccc(O)c(O)c1)C(=O)O (stereo not given) [Methyldopa] | 102 (inactive)
Cl.NNc1nncc2ccccc12 [Hydralazine hydrochloride] | 93.2 (inactive)
O=C(CCCN1CC=C(n2c(=O)[nH]c3ccccc32)CC1)c1ccc(F)cc1 | 91.1 (inactive)
CCN1CCCC1CNC(=O)c1c(OC)ccc(Br)c1OC (stereo not given) [Remoxipride] | 96.7 (inactive)
O=c1ncnc2[nH][nH]cc1-2 | 97.1 (inactive)
CCC(=O)Nc1ccc2ncnc(Nc3cccc(Br)c3)c2c1 | 93.1 (inactive)
CCCCC1=NC2(CCCC2)C(=O)N1Cc1ccc(-c2ccccc2-c2nn[nH]n2)cc1 | 101 (inactive)
CC(C)c1ccc(C(=O)N=C(N)N)cc1S(C)(=O)=O [N''-[4-isopropyl-3-(methylsulfonyl)benzoyl]guanidine] | 99.1 (inactive)
CCCCCCCCCCCC(=O)O | 103 (inactive)
CCN(CC)C(=S)SSC(=S)N(CC)CC [Tetraethylthiuram disulfide] | 120 (inactive)

Request: # return recorded H1.0 immunofluorescence intensity for entry CCCCCC=CCC=CCCCCCCCCC(=O)O [10(Z),13(Z)-Nonadecadienoic acid]
Result: 109 (inactive)

Request: # return recorded H1.0 immunofluorescence intensity for entry C[N+](C)(C)CCC(=O)c1cccc2ccccc12.[I-] [2-(alpha-Naphthoyl)ethyltrimethylammonium iodide]
Result: 101 (inactive)

----------
- System: HCC1569
- assayExplanation: cell number relative to DMSO (% of DMSO); higher = more cells (less growth inhibition / toxicity)
- conditionSummary: concentration: 10 µM; 24 h
endpointName: cell number
Please reply with the number alone, leaving off any unit.

Request: # return recorded cell number for entry NC(C(=O)O)C1CC1C(=O)O (stereo not drawn)
Result: 105

----------
- Test system: HCC1569
- assayExplanation: cell number relative to DMSO (% of DMSO); higher = more cells (less growth inhibition / toxicity)
- conditionSummary: concentration: 10 µM; 24 h
endpointName: cell number
Please reply with the number alone, leaving off any unit.

Answered cases to consult:
molecule | testedSystem | endpointName | numericResult
O=C1NCN(c2ccccc2)C12CCN(CCCC(c1ccc(F)cc1)c1ccc(F)cc1)CC2 [Fluspirilene] | HCC1569 | cell number | 82.7
NS(=O)(=O)c1ccc(N2CCN(CC[C@@H]3OCCc4ccccc43)CC2)cc1 | HCC1569 | cell number | 101

Request: # return recorded cell number for entry CCC=CCC=CCC=CCCCCCCCC(=O)O [Linolenic acid]
Result: 104

Request: # return recorded cell number for entry O=c1cc(-c2ccccc2)[nH]c2nc(Cl)ccc12 [7-Chloro-4-hydroxy-2-phenyl-1,8-naphthyridine]
Result: 76.7

----------
- Test system: HCC1569
- assayExplanation: cell number relative to DMSO (% of DMSO); higher = more cells (less growth inhibition / toxicity)
- conditionSummary: concentration: 10 µM; 24 h
Entries and their cell number

Answered cases to consult:
molecule | result
COc1ccccc1N1CCN(CC(O)COc2cccc3ccccc23)CC1.Cl.Cl (configuration not stated) [Naftopidil dihydrochloride] | 101
CN(N=O)C(=O)NC1C(O)OC(CO)C(O)C1O (configuration not stated) [Streptozocin] | 101
COc1ccc2ccc(=O)oc2c1CC=C(C)C [Osthole] | 97.3

Proceeding to the next molecule to report its cell number.
Request: # return recorded cell number for entry CCCCCCCCC=CCCCCCCCC(=O)OCC(O)COP(=O)(O)O (configuration not stated) [Lysophosphatidic acid]
Result: 101

----------
- Tested on: HCC1569
- assayExplanation: H1.0 immunofluorescence intensity relative to DMSO (% of DMSO); higher = stronger H1.0 induction, active = 140 or more
- conditionSummary: concentration: 10 µM; 24 h
Entries and their H1.0 immunofluorescence intensity
Please reply with the number alone, leaving off any unit.

compound | numericResult
CN=C(NC#N)NCCSCc1csc(N=C(N)N)n1 [Tiotidine] | 99.1
COC(=O)[C@@H](N)CSCC=C(C)CCC=C(C)CCC=C(C)C [S-Farnesyl-L-cysteine methylester] | 103
C=C1C(=CC=C2CCCC3(C)C2CCC3C(C)CCCC(C)(C)O)CC(O)CC1O (configuration not stated) [1,25-Dihydroxyvitamin D3] | 98.6

Request: # return recorded H1.0 immunofluorescence intensity for entry CC(C(=O)O)c1cccc(C(=O)c2ccccc2)c1 (configuration not stated) [Ketoprofen]
Result: 101

Request: # return recorded H1.0 immunofluorescence intensity for entry CCCCCC#CCC#CCC#CCC#CCCCC(=O)O [5,8,11,14-Eicosatetraynoic acid]
Result: 103

Request: # return recorded H1.0 immunofluorescence intensity for entry Cl.c1ccc2nc(C3=NCCN3)ccc2c1 [BU224 hydrochloride]
Result: 100

Request: # return recorded H1.0 immunofluorescence intensity for entry CC(C)NCC(O)c1ccc(NS(C)(=O)=O)cc1.Cl (configuration not stated) [Sotalol.HCl]
Result: 99

----------
Entries and their H1.0 immunofluorescence intensity
- Test system: HCC1569
- assayExplanation: H1.0 immunofluorescence intensity relative to DMSO (% of DMSO); higher = stronger H1.0 induction, active = 140 or more
- conditionSummary: concentration: 10 µM; 24 h
Please reply with the number alone, leaving off any unit.

Answered cases to consult:
compound | testedSystem | H1.0 immunofluorescence intensity
CCc1cc(Cl)c(OC)c(C(=O)NCC2CCCN2CC)c1O.Cl (stereo not drawn) [S-(-)-Eticlopride hydrochloride] | HCC1569 | 97.8
COc1ccc(CCN(C)CCCC(C#N)(c2ccc(OC)c(OC)c2)C(C)C)cc1OC (stereo not given) | HCC1569 | 98.6
COc1ccc(C(=O)NCc2cccnc2)cc1C(=O)NCc1cccnc1 [Picotamide] | HCC1569 | 103
CCC=CCC=CCC=CCCCCCCCCCCCC(=O)O | HCC1569 | 102

Proceeding to the next compound to report its H1.0 immunofluorescence intensity.
Request: # return recorded H1.0 immunofluorescence intensity for entry COc1ccc(C=CC(=O)Nc2ccccc2C(=O)O)cc1OC
Result: 102

Origin of the recorded values: the supplement of paper PMC7156485
